Target: T1, BCMA on BCMA-positive NCI-H929, ARP-1 and U266B1 cells (human, UniProt Q02223 1-184)
T1 sequence: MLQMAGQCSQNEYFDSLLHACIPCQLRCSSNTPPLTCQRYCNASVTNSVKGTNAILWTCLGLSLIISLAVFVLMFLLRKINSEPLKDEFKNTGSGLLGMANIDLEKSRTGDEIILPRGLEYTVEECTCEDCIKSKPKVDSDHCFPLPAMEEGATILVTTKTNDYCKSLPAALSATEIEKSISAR
Test: cell-based or functional assay
attribute_measured: ARP-1, SC239-conjugated 2° antibody cell killing, EC50

# binder 10F4 (antibody, V domains shown, chicken HybriFree-derived antibody; also called Antibody 37) VH: AVTLDESGGGLQTPGGALSLVCKASGFTFSGYNMGWVRQAPGKGLEYVAGITYGTGSYTAYGAAVKGRATISRDNGQSTLRLQLNNLRAEDTATYYCARGGGLNSYGCSGANIDAWGHGTEVIVSS VL: ALTQPSSVSANLGGTVKITCSGGGNYFGSYYYGWYQQKAPGSAPVTVIYNNNNRPSDIPSRFSGSTSGSTSTLTISGVRAEDEAVYFCGGFDSSTDAIFGAGTTLTVL ; its ARP-1, SC239-conjugated 2° antibody cell killing, EC50 = 1 nM

Lab note: 10E10 (antibody, V domains shown, chicken HybriFree-derived antibody; also called Antibody 46) VH: AVTLDESGGGLQTPGGGLSLVCKASGFTFSSYGMGWMRQAPGKGLEFVARINSGGSSYTDYGSAVKGRATISRDDGQSTVRLQLNNLRAEDTGIYYCTRGGGGASIDGWGHGTEVIVSS VL: ALTQPSSVSANPGETVKITCSGGGNYAGSYYYGWYQQKSPGSAPLTVIYNSNNRPSDIPSRFSGSLSGSTGTLTITGVRAEDEAVYFCGGFDSSTDAIFGAGTTLTVL gave ARP-1, SC239-conjugated 2° antibody cell killing, EC50 of 3 nM

binder 9A8 (antibody, V domains shown, chicken HybriFree-derived antibody; also called Antibody 30) VH: AVTLDESGGGLQTPGGTLSLVCKASGFTFSSFNMFWVRQAPGKGLEWVAYIRNDGNSASYGPAVKGRATISRDNGQSTVRLQLNNLRAEDTATYYCAKTTCIGSGGCIDTWGHGTEVIVSS VL: ALTQPSSVSANPGETVKITCSGGSSDYGWFQQKSPGSAPVTVIYSNNQRPSGIPSRFSGSKSGSTGTLTITGVQAEDEAIYYCANVDYTDDVFGAGTTLTVL , ARP-1, SC239-conjugated 2° antibody cell killing, EC50 observed: 2.4 nM

10G5 (antibody, V domains shown, chicken HybriFree-derived antibody; also called Antibody 31) VH: AVTLDESGGGLQTPGGVLSLVCKASGFTFSSFNMFWVRQAPGKGLEWVAYISNDGSSTSYGPAVKGRATISRDNGQSTVRLQLNNLRAEDTATYFCAKTTCIGSGGCIDTWGHGTEVIVSS VL: ALTQPSSVSANPGETVKITCSGGNYDYGWYQQKSPGSAPVTLIYYNNKRPSDIPSRFSGSKSGSTGTLTITGVQAEDEAIYYCANVDSTDDVFGAGTTLTVL yielded ARP-1, SC239-conjugated 2° antibody cell killing, EC50 of 3.5 nM
